measurement_description: APR_HepG2_MitoticArrest_24hr: Apredica 24-hour HepG2 Assay for Mitotic Arrest (AID 2282910)
details: high-content imaging, actives raise or lower the signal
The source made the active and inactive calls. The calls were made as follows: active = hit-call score of the fitted dose curve at least 0.9, where 1 is the maximum; inactive = score below 0.9.
Pick one: active, inactive

Examples from the recorded data:
compound=OC[C@H]1O[C@@H]2O[C@H]3[C@H](O)[C@@H](O)[C@@H](O[C@H]4[C@H](O)[C@@H](O)[C@@H](O[C@H]5[C@H](O)[C@@H](O)[C@@H](O[C@H]6[C@H](O)[C@@H](O)[C@@H](O[C@H]7[C@H](O)[C@@H](O)[C@@H](O[C@H]1[C@H](O)[C@H]2O)O[C@@H]7CO)O[C@@H]6CO)O[C@@H]5CO)O[C@@H]4CO)O[C@@H]3CO answer_label=inactive
compound="CCCCC(CC)C(=O)OCCOCCOCCOC(=O)C(CC)CCCC (stereo not given)" answer_label=inactive
compound=CC(C)C(=O)Nc1ccc([N+](=O)[O-])c(C(F)(F)F)c1 answer_label=active

Test call, this compound: "O=C(NO)C1(NS(=O)(=O)c2ccc(Oc3ccc(F)cc3)cc2)CCOCC1"
inactive

Test call, this compound: "c1ccc2c(c1)-c1cccc3c1c-2cc1ccccc13"
active

Test call, this compound: "c1ccc2ncccc2c1"
inactive

Test call, this compound: "COCc1nnc(-c2ccc[n+]([O-])c2)n1-c1c(Cl)c(Cl)cc2[nH]c(=O)c(=O)[nH]c12"
inactive

###

measurement_description: Tanguay_ZF_120hpf_ANY: Oregon State University Tanguay Lab 120 Hour Post-fertilization zebrafish Assay for Any Mortality and Malformation (AID 2284404)
Activity calls are given as the source filed them. Rule for the calls: active = hit-call score of the fitted dose curve at least 0.9, where 1 is the maximum; inactive = score below 0.9.
Pick one: 1 (yes) for active, 0 (no) for inactive

Examples from the recorded data:
compound=NCC(F)(F)C(F)(F)C(F)(F)C(F)(F)F answer_label="0 (no)"
compound=FC(F)=C(F)C(F)(F)C(F)(F)C(F)(F)C(F)(F)C(F)(F)C(F)(F)F answer_label="0 (no)"
compound=FC(F)(F)C(F)(F)C(F)(F)C(F)(F)C(F)(F)C(F)(F)I answer_label="0 (no)"
compound=OC(O)(C(F)C(O)(O)C(F)(F)F)C(F)(F)F answer_label="1 (yes)"
compound="FC(F)C(F)(F)COCC1CO1 (stereo unspecified)" answer_label="0 (no)"

From here, focus on the item given below.
Test call, this compound: "OCCC(F)(F)C(F)(F)C(F)(F)C(F)(F)F"
0 (no)

###

Test system: NCBI gene 100848466
measurement_description: NVS_NR_bPR: NovaScreen (NVS) Nuclear Receptor Binding Assay for bovine Progextron Receptor (PR) (AID 2283343)
Protocol: NVS_NR_bPR is a biochemical, single-readout assay that uses extracted gene-proteins from Bovine uterine membranes in a tissue-based cell-free assay. Measurements were taken 18 hours after chemical dosing in a 96-well plate.NVS_NR_bPR is one of one assay component(s) measured or calculated from the NVS_NR_bPR assay. […] This assay endpoint, NVS_NR_bPR, was analyzed in the positive analysis fitting direction relative to DMSO as the negative control and baseline of activity. […]
Inconclusive results are not listed. Activity calls are given as the source filed them. Rule for the calls: active = hit-call score of the fitted dose curve at least 0.9, where 1 is the maximum; inconclusive = response in the unintended direction; inactive = score below 0.9.
Pick one: active, inactive

Examples from the recorded data:
smiles_representation=C=CCc1cc(S(=O)(=O)c2ccc(O)c(CC=C)c2)ccc1O answer_label=inactive
smiles_representation=CC(C)C(=O)Nc1ccc([N+](=O)[O-])c(C(F)(F)F)c1 answer_label=inactive
smiles_representation=Cc1nccn1-c1ccc(Sc2cccc(C3(C(N)=O)CCOCC3)c2)cc1 answer_label=active

Test call, this molecule: "Cn1cc[nH]c1=S"
inactive

###

assay_system: Estrogen receptor (Homo sapiens) + Estrogen receptor beta (Homo sapiens) (UniProt P03372+Q92731)
Sequence (P03372 whole entry, looked up, the tested form may be a part): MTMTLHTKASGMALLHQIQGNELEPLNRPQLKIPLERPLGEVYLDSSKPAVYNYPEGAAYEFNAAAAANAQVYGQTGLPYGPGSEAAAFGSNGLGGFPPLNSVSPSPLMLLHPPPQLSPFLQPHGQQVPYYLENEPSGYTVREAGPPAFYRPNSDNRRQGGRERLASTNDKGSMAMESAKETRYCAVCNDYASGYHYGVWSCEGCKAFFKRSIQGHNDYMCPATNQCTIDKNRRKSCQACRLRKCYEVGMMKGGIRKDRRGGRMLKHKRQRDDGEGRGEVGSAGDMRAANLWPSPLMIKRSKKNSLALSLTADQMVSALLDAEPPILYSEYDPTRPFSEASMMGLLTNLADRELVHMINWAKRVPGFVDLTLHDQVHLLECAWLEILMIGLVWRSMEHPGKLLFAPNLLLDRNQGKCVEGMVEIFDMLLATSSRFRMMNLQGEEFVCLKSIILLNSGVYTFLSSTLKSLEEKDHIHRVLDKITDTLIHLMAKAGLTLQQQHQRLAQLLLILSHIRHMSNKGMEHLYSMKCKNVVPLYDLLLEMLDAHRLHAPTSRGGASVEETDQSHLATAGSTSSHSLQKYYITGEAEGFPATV
Sequence (Q92731 whole entry, looked up, the tested form may be a part): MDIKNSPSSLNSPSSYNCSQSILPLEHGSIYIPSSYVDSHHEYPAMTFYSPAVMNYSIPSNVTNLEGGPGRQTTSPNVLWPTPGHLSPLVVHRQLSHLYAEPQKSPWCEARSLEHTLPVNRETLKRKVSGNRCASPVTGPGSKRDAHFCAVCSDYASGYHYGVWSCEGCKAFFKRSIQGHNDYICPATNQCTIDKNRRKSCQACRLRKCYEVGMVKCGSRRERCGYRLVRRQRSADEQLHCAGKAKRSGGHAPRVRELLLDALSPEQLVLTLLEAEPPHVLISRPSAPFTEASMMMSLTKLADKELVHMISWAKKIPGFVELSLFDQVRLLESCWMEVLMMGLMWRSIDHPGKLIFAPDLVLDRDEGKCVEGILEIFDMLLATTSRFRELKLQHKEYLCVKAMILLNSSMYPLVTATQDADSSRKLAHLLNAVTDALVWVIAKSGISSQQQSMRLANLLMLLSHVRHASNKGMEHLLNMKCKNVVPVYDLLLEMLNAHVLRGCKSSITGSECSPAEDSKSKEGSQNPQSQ
measurement_description: OT_ER_ERaERb_1440: Odyssey Thera (OT) 24-hour HEK293T Protein-Complementation Assay for Estrogen Receptor-alpha/-beta Homodimer (AID 2283356);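 also: heteromer of ER alpha and ER beta binding domains; hits raise reporter fluorescence and both agonists and antagonists give an increase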
Inconclusive results are not listed. Activity calls are given as the source filed them. How the source made its calls: active means hit-call score of the fitted dose curve at least 0.9, where 1 is the maximum; inconclusive means response in the unintended direction; inactive means score below 0.9.
Pick one: 1.0 for active, 0.0 for inactive

Examples from the recorded data:
molecule=O=C(NO)C1(NS(=O)(=O)c2ccc(Oc3ccc(F)cc3)cc2)CCOCC1 answer_label=0.0
molecule=CNC(C)=O answer_label=0.0
molecule=OCCOCCOCCO answer_label=0.0

Test call, this molecule: "CCCCCCOC(=O)CC(CC(=O)OCCCCCC)(OC(=O)CCC)C(=O)OCCCCCC"
0.0

Test call, this molecule: "CCc1cccc(CC)c1N"
0.0

Test call, this molecule: "Cc1ccc(S(=O)(=O)NC(=O)NN2CCCCCC2)cc1"
0.0

Test call, this molecule: "OC[C@H]1O[C@@H]2O[C@H]3[C@H](O)[C@@H](O)[C@@H](O[C@H]4[C@H](O)[C@@H](O)[C@@H](O[C@H]5[C@H](O)[C@@H](O)[C@@H](O[C@H]6[C@H](O)[C@@H](O)[C@@H](O[C@H]7[C@H](O)[C@@H](O)[C@@H](O[C@H]1[C@H](O)[C@H]2O)O[C@@H]7CO)O[C@@H]6CO)O[C@@H]5CO)O[C@@H]4CO)O[C@@H]3CO"
0.0

Test call, this molecule: "OC(CCl)CCl"
0.0

Test call, this molecule: "CCOc1ccc2[nH]cc(C(=O)NCc3ccccc3)c(=O)c2n1"
0.0

Test call, this molecule: "CC[C@H](C)C(=O)O[C@H]1C[C@H](O)C=C2C=C[C@H](C)[C@H](CC[C@@H](O)C[C@@H](O)CC(=O)O)[C@H]21"
0.0

###

Read-out: flavin-containing dimethylaniline monooxygenases 3 (FMO3), FMO3 (gene 2328)
measurement_description: LTEA_HepaRG_FMO3: Life Technologies and Expression Analysis (LTEA) Assay for flavin-containing dimethylaniline monooxygenases 3 (FMO3) using HepaRG (AID 2283453);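 as to AC50: differentiated human HepaRG liver cells in serum-free induction medium; FMO3 transcript by TaqMan qRT-PCR normalized to ACTB GAPDH and POLR2A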
details: mRNA level, 48 h; actives raise or lower the signal
The source made the active and inactive calls. The calls were made as follows: active = hit-call score of the fitted dose curve at least 0.9, where 1 is the maximum; inactive = score below 0.9.
value_kind: AC50

Here are 8 molecules together with their reported answers.
smiles_representation=CC(=O)c1ccccc1 result=inactive
smiles_representation=c1ccc(C(O[C@@H]2CCCN(CCc3ccc4c(c3)OCO4)C2)c2ccccc2)cc1 result="70 µM (active)"
smiles_representation=C=CCc1cc(S(=O)(=O)c2ccc(O)c(CC=C)c2)ccc1O result="76.9 µM (active)"
smiles_representation=C[C@]12C=CC(=O)C=C1CC[C@H]1[C@@H]3C[C@@H](O)[C@](O)(C(=O)CO)[C@@]3(C)C[C@H](O)[C@@]12F result=inactive
smiles_representation=CNC(C)=O result=inactive
smiles_representation=COCc1nnc(-c2ccc[n+]([O-])c2)n1-c1c(Cl)c(Cl)cc2[nH]c(=O)c(=O)[nH]c12 result=inactive
smiles_representation=OC[C@H]1O[C@@H]2O[C@H]3[C@H](O)[C@@H](O)[C@@H](O[C@H]4[C@H](O)[C@@H](O)[C@@H](O[C@H]5[C@H](O)[C@@H](O)[C@@H](O[C@H]6[C@H](O)[C@@H](O)[C@@H](O[C@H]7[C@H](O)[C@@H](O)[C@@H](O[C@H]1[C@H](O)[C@H]2O)O[C@@H]7CO)O[C@@H]6CO)O[C@@H]5CO)O[C@@H]4CO)O[C@@H]3CO result=inactive
smiles_representation=OCCOCCOCCO result=inactive

Please report the measured AC50 for "Cn1cc[nH]c1=S"
inactive

###

measurement_description: APR_HepG2_P-H2AX_72hr: Apredica 72-hour HepG2 Assay for H2AX Phosphorylation (AID 2282916);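 also: phospho-histone H2A.x immunostain intensity per cell marking DNA damage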
details: imaging, actives raise or lower the signal
Method: APR_HepG2_72hr is a cell-based, multiplexed-readout assay that uses HepG2, a human liver cell line, with measurements taken at 72 hours after chemical dosing in a 384-well plate.APR_HepG2_P-H2AX_72hr is one of 10 assay component(s) measured or calculated from the APR_HepG2_72hr assay. […] This assay endpoint, APR_HepG2_P-H2AX_72hr, was analyzed with bidirectional fitting relative to DMSO as the negative control and baseline of activity. […]
The source made the active and inactive calls. The calls were made as follows: active = hit-call score of the fitted dose curve at least 0.9, where 1 is the maximum; inactive = score below 0.9.
value_kind: AC50

Here are 8 compounds together with their reported answers.
smiles_representation=C=CCc1cc(S(=O)(=O)c2ccc(O)c(CC=C)c2)ccc1O value_kind=AC50 result="53.2 µM (active)"
smiles_representation=O=C(O)c1cccc(C(=O)O)c1 value_kind=AC50 result=inactive
smiles_representation=CCCc1ccccc1 value_kind=AC50 result=inactive
smiles_representation=CCCCCCCCCCCCCCCCOS(=O)(=O)O value_kind=AC50 result=inactive
smiles_representation=c1ccc(C(O[C@@H]2CCCN(CCc3ccc4c(c3)OCO4)C2)c2ccccc2)cc1 value_kind=AC50 result="96 µM (active)"
smiles_representation=C[C@@H](Oc1ccc(CNC(=O)c2cccnc2Oc2ccc3c(c2)OCO3)c(F)c1)C(=O)O value_kind=AC50 result=inactive
smiles_representation=NC(=O)N(O)[C@@H]1COc2cc(OCc3ccccc3)ccc21 value_kind=AC50 result=inactive
smiles_representation=O=C(O)c1cccc(C[C@@H]2COc3ccc(OCc4nc5cc(F)ccc5s4)cc3[C@@H]2O)c1 value_kind=AC50 result="97.3 µM (active)"

Hi, could you look up AC50 for each item in my list?
1. OC[C@H]1O[C@@H]2O[C@H]3[C@H](O)[C@@H](O)[C@@H](O[C@H]4[C@H](O)[C@@H](O)[C@@H](O[C@H]5[C@H](O)[C@@H](O)[C@@H](O[C@H]6[C@H](O)[C@@H](O)[C@@H](O[C@H]7[C@H](O)[C@@H](O)[C@@H](O[C@H]1[C@H](O)[C@H]2O)O[C@@H]7CO)O[C@@H]6CO)O[C@@H]5CO)O[C@@H]4CO)O[C@@H]3CO
2. CCc1cccc(CC)c1N
3. O=C(NO)C1(NS(=O)(=O)c2ccc(Oc3ccc(F)cc3)cc2)CCOCC1
4. COS(C)(=O)=O
5. CCCOc1ccc(S(=O)(=O)N2CCN(CC)CC2)cc1-c1nc2c(CC)n(Cc3ccccn3)nc2c(=O)[nH]1
6. c1ccc2ncccc2c1
7. Cn1cc[nH]c1=S
8. COc1cc2c(c(OC)c1OC)-c1ccc(OC)c(=O)cc1[C@@H](NC(C)=O)CC2

1: inactive; 2: inactive; 3: 100 µM (active); 4: inactive; 5: 99.7 µM (active); 6: inactive; 7: inactive; 8: 0.0815 µM (active)
